Hi! I'm sharing some UEFEP-ABFE results obtained with SARS-CoV-2 M^pro (Severe acute respiratory syndrome coronavirus 2).
I only need the number, in kcal/mol, no unit after it.

> print(dat)
                                   compound  data.value
1  CCOc1nc2cccc(C(=O)OC(C)OC(=O)OC3CCCCC3)c2n1Cc1ccc(-c2ccccc2-c2nnn[nH]2)cc1 (centres unmarked)         0.6

What value of UEFEP-ABFE has been recorded for this entry: CN(C)[C@@H]1C(O)=C(C(N)=O)C(=O)[C@@]2(O)C(O)=C3C(=O)c4c(O)cccc4[C@@](C)(O)[C@H]3[C@H](O)[C@@H]12
0.6

How about COC(=O)N[C@H](C(=O)N[C@@H](Cc1ccccc1)[C@@H](O)CN(Cc1ccc(-c2ccccn2)cc1)NC(=O)[C@@H](NC(=O)OC)C(C)(C)C)C(C)(C)C ?
0.6

----------
# target_entity: SARS-CoV-2 M^pro (Severe acute respiratory syndrome coronavirus 2, UniProt P0DTD1)
# condition_info: unsigned error |ΔGMM-GBSA − ΔGexp|
Structures can show the parent of a compound that is named as a salt.
quantity_measured: UEMM-GBSA (kcal/mol)
I only need the number, in kcal/mol, no unit after it.

Example cases with answers are listed next.
molecule	quantity_measured	data_value
COC(=O)N[C@H](C(=O)N[C@@H](Cc1ccccc1)[C@@H](O)CN(Cc1ccc(-c2ccccn2)cc1)NC(=O)[C@@H](NC(=O)OC)C(C)(C)C)C(C)(C)C [Atazanavir, atazanavir]	UEMM-GBSA	30.6
CC(=O)OCC(=O)NCCCOc1cccc(CN2CCCCC2)c1 [Roxatidine acetate hydrochloride]	UEMM-GBSA	22.5
CC(=O)NS(=O)(=O)c1ccc(N)cc1 [Sulfacetamide]	UEMM-GBSA	6.4
CC(C)Nc1nc2cc(Cl)c(Cl)cc2n1[C@H]1O[C@@H](CO)[C@H](O)[C@@H]1O [Maribavir]	UEMM-GBSA	25.7

What value of UEMM-GBSA has been recorded for this entry: CC(C)[C@H](N)C(=O)OCCOCn1cnc2c(=O)[nH]c(N)nc21 [Valacyclovir hydrochloride]
10.2

How about CCOc1nc2cccc(C(=O)OC(C)OC(=O)OC3CCCCC3)c2n1Cc1ccc(-c2ccccc2-c2nnn[nH]2)cc1 (stereo not shown) [Candesartan cilexetil, candesartan cilexetil] ?
29.1

How about COc1ccc2[nH]c([S+]([O-])Cc3ncc(C)c(OC)c3C)nc2c1 (stereo not shown) [Omeprazole] ?
16.4

----------
# target_entity: SARS-CoV-2 M^pro (Severe acute respiratory syndrome coronavirus 2, UniProt P0DTD1)
# condition_info: unsigned error |ΔGMM-PBSA − ΔGexp|
Structures can show the parent of a compound that is named as a salt.
quantity_measured: UEMM-PBSA

Example cases with answers are listed next.
molecule	data_value
COC(=O)N[C@H](C(=O)N[C@@H](Cc1ccccc1)[C@@H](O)CN(Cc1ccc(-c2ccccn2)cc1)NC(=O)[C@@H](NC(=O)OC)C(C)(C)C)C(C)(C)C [Atazanavir, atazanavir]	24.4 kcal/mol
CC(=O)OCC(=O)NCCCOc1cccc(CN2CCCCC2)c1 [Roxatidine acetate hydrochloride]	21.2 kcal/mol

Give recorded UEMM-PBSA with SARS-CoV-2 M^pro (Severe acute respiratory syndrome coronavirus 2, UniProt P0DTD1) for the following molecule: COc1ccc2[nH]c([S+]([O-])Cc3ncc(C)c(OC)c3C)nc2c1 (stereo not shown) [Omeprazole]
14.3 kcal/mol

How about CCOc1nc2cccc(C(=O)OC(C)OC(=O)OC3CCCCC3)c2n1Cc1ccc(-c2ccccc2-c2nnn[nH]2)cc1 (stereo not shown) [Candesartan cilexetil, candesartan cilexetil] ?
26.9 kcal/mol

----------
# target_entity: UniProt:P0DTD1
# protocol: biochemical
Recorded pKi, one value per entry.
The value called pKi is obtained by taking minus log10 of the concentration in mol/L.

> print(dat)
                                   compound  data.value
1  CCOc1nc2cccc(C(=O)O)c2n1Cc1ccc(-c2ccccc2-c2nnn[nH]2)cc1        6.21

Lab note: next compound to report on.
What value of pKi has been recorded for this entry: COc1ccc2[nH]c([S+]([O-])Cc3ncc(C)c(OC)c3C)nc2c1 (stereo not shown)
5.86

----------
Recorded ΔGexp, one value per entry.
# target_entity: SARS-CoV-2 M^pro (Severe acute respiratory syndrome coronavirus 2)
# protocol: biochemical
# condition_info: calculated from corresponding Ki values
Structures can show the parent of a compound that is named as a salt.
I only need the number, in kcal/mol, no unit after it.

> print(dat)
                                   molecule         u  data.value
1  COC(=O)N[C@H](C(=O)N[C@@H](Cc1ccccc1)[C@@H](O)CN(Cc1ccc(-c2ccccn2)cc1)NC(=O)[C@@H](NC(=O)OC)C(C)(C)C)C(C)(C)C  kcal/mol        -8.6
2                CCN(CC)C(=S)SSC(=S)N(CC)CC  kcal/mol        -8.8
3  CC(C)[C@H](N)C(=O)OCCOCn1cnc2c(=O)[nH]c(N)nc21 [Valacyclovir hydrochloride]  kcal/mol        -8.1
4  CC(=O)NS(=O)(=O)c1ccc(N)cc1 [Sulfacetamide]  kcal/mol        -7.5
5  CN(C)[C@@H]1C(O)=C(C(N)=O)C(=O)[C@@]2(O)C(O)=C3C(=O)c4c(O)cccc4[C@@](C)(O)[C@H]3[C@H](O)[C@@H]12  kcal/mol        -8.2

What value of ΔGexp has been recorded for this entry: CC(=O)OCC(=O)NCCCOc1cccc(CN2CCCCC2)c1 [Roxatidine acetate hydrochloride]
-8.0

How about CCOc1nc2cccc(C(=O)OC(C)OC(=O)OC3CCCCC3)c2n1Cc1ccc(-c2ccccc2-c2nnn[nH]2)cc1 (centres unmarked) ?
-9.2

How about COc1ccc2[nH]c([S+]([O-])Cc3ncc(C)c(OC)c3C)nc2c1 (centres unmarked) ?
-8.0

----------
Recorded pIC50, one value per entry.
# target_entity: SARS-CoV-2 M^pro (Severe acute respiratory syndrome coronavirus 2)
# protocol: biochemical
pIC50: −log10 of the molar value.

Example cases with answers are listed next.
> print(dat)
                                   molecule  data.value
1  CC(=O)NS(=O)(=O)c1ccc(N)cc1 [Sulfacetamide]       ~4.30
2  COc1ccc2[nH]c([S+]([O-])Cc3ncc(C)c(OC)c3C)nc2c1 (stereo not drawn) [Omeprazole]        4.68

What value of pIC50 has been recorded for this entry: CN/C(=N/CCSCc1nc[nH]c1C)NC#N [Cimetidine]
~4.30

----------
# target_entity: UniProtKB P0DTD1
# protocol: biochemical
# condition_info: substrate concentration 20 µM; 500 nM enzyme; ∼50 values estimated from single-concentration assay; read-out: IC50
Counter-ions that a name gives are not always drawn.
quantity_measured: pIC50
The value called pIC50 is obtained by taking minus log10 of the concentration in mol/L.

Example cases with answers are listed next.
> print(dat)
                                   molecule  data.value
1  CC(=O)OCC(=O)NCCCOc1cccc(CN2CCCCC2)c1 [Roxatidine acetate hydrochloride]        4.69
2  COC(=O)N[C@H](C(=O)N[C@@H](Cc1ccccc1)[C@@H](O)CN(Cc1ccc(-c2ccccn2)cc1)NC(=O)[C@@H](NC(=O)OC)C(C)(C)C)C(C)(C)C        5.12

What value of pIC50 has been recorded for this entry: CC(C)[C@H](N)C(=O)OCCOCn1cnc2c(=O)[nH]c(N)nc21 [Valacyclovir hydrochloride]
4.78

How about CCOc1nc2cccc(C(=O)OC(C)OC(=O)OC3CCCCC3)c2n1Cc1ccc(-c2ccccc2-c2nnn[nH]2)cc1 (centres unmarked) ?
5.55

How about CN(C)[C@@H]1C(O)=C(C(N)=O)C(=O)[C@@]2(O)C(O)=C3C(=O)c4c(O)cccc4[C@@](C)(O)[C@H]3[C@H](O)[C@@H]12 ?
4.82

----------
# target_entity: SARS-CoV-2 M^pro (Severe acute respiratory syndrome coronavirus 2)
# condition_info: unsigned error |ΔGMM-GBSA − ΔGexp|
quantity_measured: UEMM-GBSA (kcal/mol)
I only need the number, in kcal/mol, no unit after it.

Give recorded UEMM-GBSA with SARS-CoV-2 M^pro (Severe acute respiratory syndrome coronavirus 2) for the following molecule: CN(C)[C@@H]1C(O)=C(C(N)=O)C(=O)[C@@]2(O)C(O)=C3C(=O)c4c(O)cccc4[C@@](C)(O)[C@H]3[C@H](O)[C@@H]12
6.4

How about CN/C(=N/CCSCc1nc[nH]c1C)NC#N ?
20.3

How about CCN(CC)CCCC(C)Nc1ccnc2cc(Cl)ccc12 (stereo not drawn) ?
24.7

----------
# target_entity: SARS-CoV-2 M^pro (Severe acute respiratory syndrome coronavirus 2)
Where a name gives a salt, the structure may show the parent alone.
quantity_measured: UEFEP-ABFE (kcal/mol)
I only need the number, in kcal/mol, no unit after it.

Example cases with answers are listed next.
> print(dat)
                                   compound  data.value
1  CCN(CCO)CCCC(C)Nc1ccnc2cc(Cl)ccc12 (centres unmarked) [Hydroxychloroquine, hydroxychloroquine]         1.1
2                CCN(CC)C(=S)SSC(=S)N(CC)CC         2.2
3              CN/C(=N/CCSCc1nc[nH]c1C)NC#N         1.4
4  COc1ccc2[nH]c([S+]([O-])Cc3ncc(C)c(OC)c3C)nc2c1 (centres unmarked)         1.6
5  CC(=O)NS(=O)(=O)c1ccc(N)cc1 [Sulfacetamide]         0.5
6  CC(=O)OCC(=O)NCCCOc1cccc(CN2CCCCC2)c1 [Roxatidine acetate hydrochloride]         0.8
7  CC(C)[C@H](N)C(=O)OCCOCn1cnc2c(=O)[nH]c(N)nc21 [Valacyclovir hydrochloride]         1.9

Lab note: next compound to report on.
What value of UEFEP-ABFE has been recorded for this entry: CCN(CC)CCCC(C)Nc1ccnc2cc(Cl)ccc12 (centres unmarked)
1.5
